test system: KAI1 promoter; assay: KAI1 promoter luciferase reporter assay in transfected Caco2 cells; format: cell-based, human; details: Homo sapiens, Caco-2, 16 h, 1 μM compound, 16 hours, transfected Caco2 cells, luciferase activity relative to DMSO control (=1); read-out: Relative KAI promoter activity
molecules and their reported fold induction at 1 µM

{"molecule": "C=CC(=O)NCC(=O)c1ccc(N(C)C)cc1", "experimental_system": "KAI1 promoter", "fold induction at 1 µM": 1.21}
{"molecule": "O=C(COc1ccccc1C(=O)NCC(=O)c1ccccc1)Nc1ccc(F)c([N+](=O)[O-])c1", "experimental_system": "KAI1 promoter", "fold induction at 1 µM": 1.44}
{"molecule": "CC(C)(C)OC(=O)N1CCN(Cc2cccc(C(=O)NCC(=O)c3ccccc3)c2)CC1", "experimental_system": "KAI1 promoter", "fold induction at 1 µM": 1.35}
{"molecule": "Cc1[nH]c(/C=C2\\C(=O)Nc3ccc(S(=O)(=O)Cc4c(Cl)cccc4Cl)cc32)c(C)c1C(=O)N1CCC[C@@H]1CN1CCCC1 [PHA, PHA-665752, reference compound]", "experimental_system": "KAI1 promoter", "fold induction at 1 µM": 1.43}

* * *

Below, each of the molecules is paired with its reported fold induction at 1 µM value.
System: KAI1 promoter
Test: KAI1 promoter luciferase reporter assay in transfected Caco2 cells
Type: cell-based, human
Details: Homo sapiens, Caco-2, 16 h, 1 μM compound, 16 hours, transfected Caco2 cells, luciferase activity relative to DMSO control (=1); read-out: Relative KAI promoter activity
Experimental: Experiments were conducted to evaluate the metastasis-related promoter activity-increasing effects of the compounds according to the present invention. Specifically, the KAI1 promoter reporter vector was used. In this case, the pRL-TK vector, a vector expressing renilla luciferase, was used as an internal control indicating the transfection efficiency in each transfected well. […]

{"molecule": "COc1cccc(C(=O)CNC(=O)c2cccc(CN(C)C3CCCCC3)c2)c1 [Example 280]", "fold induction at 1 µM": 1.63}
{"molecule": "COc1ccc(S(=O)(=O)N2CCC(Oc3ccccc3C(=O)NCC(=O)c3ccccc3)CC2)cc1 [Example 189]", "fold induction at 1 µM": 0.9}
{"molecule": "O=C(CNC(=O)c1cccs1)c1ccccc1 [Example 18]", "fold induction at 1 µM": 2.18}
{"molecule": "O=C(CNC(=O)c1cccc(CN2CCN(c3ncccn3)CC2)c1)c1ccccc1 [Example 235]", "fold induction at 1 µM": 1.44}
{"molecule": "COc1ccccc1N1CCN(Cc2cccc(C(=O)NCC(=O)c3ccccc3)c2)CC1 [Example 236]", "fold induction at 1 µM": 1.3}
{"molecule": "COc1cccc(C(=O)CNC(=O)C2CC2)c1 [Example 125]", "fold induction at 1 µM": 1.48}
{"molecule": "CC(C)Oc1cccc(NC(=O)COc2ccccc2C(=O)NCC(=O)c2ccccc2)c1 [Example 220]", "fold induction at 1 µM": 1.15}
{"molecule": "O=C(CNC(=O)c1ccc(CN2CCN(c3ccc([N+](=O)[O-])cc3)CC2)cc1)c1ccccc1 [Example 261]", "fold induction at 1 µM": 1.25}
{"molecule": "O=C(CNC(=O)c1ccccc1OC1CCN(C(=O)c2ccccc2F)CC1)c1ccccc1 [Example 153]", "fold induction at 1 µM": 1.05}
{"molecule": "O=C(CNC(=O)c1ccccc1OC1CCN(C(=O)CCc2ccccc2)CC1)c1ccccc1 [Example 159]", "fold induction at 1 µM": 0.99}
{"molecule": "COc1cccc(C(=O)CNC(=O)c2cccc(CC3CCN(c4ccccc4F)CC3)c2)c1 [Example 281]", "fold induction at 1 µM": 1.52}
{"molecule": "O=C(CNS(=O)(=O)Cc1ccccc1)c1ccccc1 [Example 28]", "fold induction at 1 µM": 1.02}
{"molecule": "O=C(CNC(=O)c1cc(Cl)cc(Cl)c1)c1ccccc1 [Example 36]", "fold induction at 1 µM": 1.16}
{"molecule": "CCN(CCO)Cc1ccc(C(=O)NCC(=O)c2ccccc2)cc1 [Example 274]", "fold induction at 1 µM": 5.27}
{"molecule": "C/C=C/C(=O)N1CCC(Oc2ccccc2C(=O)NCC(=O)c2ccccc2)CC1 [Example 158]", "fold induction at 1 µM": 1}
{"molecule": "O=C(CNS(=O)(=O)c1cccc([N+](=O)[O-])c1)c1ccccc1 [Example 21]", "fold induction at 1 µM": 0.99}
{"molecule": "O=C(CNC(=O)c1ccccc1OC1CCN(C(=O)c2ccco2)CC1)c1ccccc1 [Example 155]", "fold induction at 1 µM": 0.99}
{"molecule": "CC(=O)Oc1ccccc1C(=O)N1CCC(Oc2ccccc2C(=O)NCC(=O)c2ccccc2)CC1 [Example 176]", "fold induction at 1 µM": 1.08}
